- Tested on: SK-MEL-5 melanoma
- Protocol Summary: NCI tumour cell line growth inhibition, 48 h
Attribute Measured: TGI (µM)

1) COc1cccc(C23CCCC(C2)N(C)CC3OC(=O)c2ccccc2)c1OC (stereo not given); 27.4
2) CC1(C)C(=O)C=CC2(C)C1CC(O)C1(C)C2CCC2(C)C(c3ccoc3)OC(=O)C3OC321 (stereo not given); 21.8
3) COC1(OC)C=CC(=O)C=C1; 46.2
4) Oc1c(CN2CCCC2)cc(CSCc2ccccc2)c2cccnc12; 1.6

----------
- Test system: SNB-75 CNS
- Protocol Summary: NCI tumour cell line growth inhibition, 48 h
// values below are reported TGI
Attribute Measured: TGI

1. Cc1nc2c(n1-c1ccccc1)C(=O)c1ccccc1C2=O; > 100 µM
2. O=C1/C(=C/c2ccc(O)cc2)CCC1CNc1ccccc1 (stereo not drawn); 41.2 µM
3. COC(=O)c1ccc2c(c1)C(=O)c1c-2n(CCCN)c(=O)c2cc(OC)c(OC)cc12; 32.9 µM
4. CC[C@@]12C=CCN3CC[C@]4(c5cc(NC(=O)COc6cc(OCC(=O)Nc7cc8c(cc7OC)N(C)[C@H]7[C@@](O)(C(=O)OC)[C@H](OC(C)=O)[C@]9(CC)C=CCN%10CC[C@]87[C@@H]%109)cc7oc(-c8ccccc8)cc(=O)c67)c(OC)cc5N(C)[C@@H]4[C@](O)(C(=O)OC)[C@H]1OC(C)=O)[C@H]32; > 100 µM
5. Clc1ccc(-c2c(C3=NCCN3)nnn2-c2ccccc2)cc1; > 100 µM
6. CCOC(=O)c1c(-c2ccccc2)c(C(OC(c2ccccc2)c2c(-c3ccccc3)c(C(=O)OCC)n3ccccc23)c2ccccc2)c2ccccn12 (stereo not drawn); > 100 µM
7. Cc1ccc(/C=C2/NC(=S)SC2=O)cc1; 80.8 µM
8. CC(=O)c1cccc(-c2cccc(-c3ccn(CCN4CCOCC4)n3)c2)c1; > 20 µM

----------
- Tested on: HT29 colon
- Protocol Summary: NCI tumour cell line growth inhibition, 48 h
// values below are reported GI50
Attribute Measured: GI50

1) Clc1ccc2c(c1)C(N1CCNCC1)=Nc1ccccc1O2; 1.72 µM
2) CCOC(=O)c1c2c(n(Cc3ccccc3)c1C)-c1nc(Cc3ccccc3)[nH]c1C(=O)C2=O; 1.64 µM
3) Cn1cc(C2=C(c3cn(C)c4cc(N)ccc34)C(=O)NC2=O)c2ccccc21; 1.07 µM
4) CS(=O)(=O)[O-].CS(=O)(=O)[O-].NC1CCCCC1N.[Pt+4] (stereo unspecified); 62.3 µM
5) CC[C@@]12C=CCN3CC[C@]4(c5cc(NC(=O)COc6cc(OCC(=O)Nc7cc8c(cc7OC)N(C)[C@H]7[C@@](O)(C(=O)OC)[C@H](OC(C)=O)[C@]9(CC)C=CCN%10CC[C@]87[C@@H]%109)cc7oc(-c8ccccc8)cc(=O)c67)c(OC)cc5N(C)[C@@H]4[C@](O)(C(=O)OC)[C@H]1OC(C)=O)[C@H]32; 3.42 µM
6) COc1ccc([C@@H](O)c2cc(-c3ncnc4cc(N5CCOCC5)ccc34)c(F)cc2Cl)nn1; 1.97 µM

----------
- Tested on: OVCAR-8 ovarian
- Protocol Summary: NCI tumour cell line growth inhibition, 48 h; in the data active = GI50 below about 0.43 µM; inactive = the rest
Outcomes: 1 for active, -1 for inactive

1) CC1(C)[C@@H](OC(N)=O)C=C[C@]2(CO)[C@H]3CC[C@]4(C)[C@@H](c5ccc(=O)oc5)[C@@H](Cl)C[C@]4(O)C3=CC[C@@H]12; 1
2) CCOC(=O)Nc1nc2cc(OCC)ccc2s1; -1
3) N=c1ccc2nc3c(cc(N)c4ccccc43)oc-2c1; -1
4) O=C(N/N=C/c1ccc(Cl)cc1)c1[nH]c2ccc(Cl)cc2c1-c1ccccc1; 1
5) Clc1ccc2c(c1)C(N1CCNCC1)=Nc1ccccc1O2; -1
6) C[C@]12CC[C@@H](OC(=O)N(CCCl)N=O)C[C@@H]1CC[C@@H]1[C@@H]2CC[C@]2(C)C(=O)CC[C@@H]12; -1
7) CSc1nsc(S/C=C\C(=O)c2ccc(C)cc2)n1; -1
8) Oc1c(CN2CCCC2)cc(CSCc2ccccc2)c2cccnc12; -1
9) CCCCCCNC(=O)n1cc(F)c(=O)[nH]c1=O; -1
10) COc1ccc([C@@H](O)c2cc(-c3ncnc4cc(N5CCOCC5)ccc34)c(F)cc2Cl)nn1; -1
11) CCCCN(CC)c1ncnc2ccc(Br)cc12; -1
